biological target: T1, Human TIM-3 Human Fc tagged protein (human, fluorescently labeled with HiLyte Fluor 555 (sites not given)); assay: capture slide probed with labeled TIM-3-Fc;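 also: IgG from single CD138-enriched plasma cells, isolated from lymphocytes, immobilized on a derivatized glass slide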
T1 construct: Bought construct; also called TIM-3 protein tagged with human Fc; ACROBiosystems catalog no: TM3-H5258
recorded-metric: binding result

binder="SCT-Fa158 (antibody, V domains shown, murine IgG) VH: QVQLQQPGTELVKPGASVKVSCKASGYTFISYWMHWVKQRPGQGLEWIGNIDPNSGTTNYNEKFKTKATLTVDKSSSTAYMQLSSLTSEDSAVYYCARWGWDGFAYWGQGTLVTVSA VL: DAVMTQTPLSLPVSLGDQASISCRSSQSLENSNGNTYLNWYLQKPGQSPQLLIYRVSTRFSGVLDRFSGSGSGTDFTLKISRVEAEDLGVYFCLQVTHVPYTFGGGTKLEIK" recorded_value=binds
binder="SCT-Fa110 (antibody, V domains shown, murine IgG) VH: QVQLKQSGAELVRPGTSVRLSCKASGYTLTDYYINWVKQRPGQGLEWIARIYPGNGNTYYNEKFKGKATLTAEKSSSTVNMQVTSLTSEDSAVYFCARGGSSDRIYYYAMDYWGQGTSVTVSS VL: DIQMNQSPSSLSASLGDTITITCHASQNINVWLSWYQQKPGNIPKLLIYKASNLHTGVPSRFSGSGSGTGFTLTISSLQPEDIATYYCQQGQSYPLTFGSGTKLEIK" recorded_value=binds
binder="SCT-Fa111 (antibody, V domains shown, murine IgG) VH: QVQLKQSGPGLVQPSQSLSITCTVSGFSLISYGVHWVRQSPGKGLEWLGIIWSGGNTDYNAAFISRLSISKDNSKSQVFFKLNSLQADDTAIYYCARTANALDYWGQGTSVTVSS VL: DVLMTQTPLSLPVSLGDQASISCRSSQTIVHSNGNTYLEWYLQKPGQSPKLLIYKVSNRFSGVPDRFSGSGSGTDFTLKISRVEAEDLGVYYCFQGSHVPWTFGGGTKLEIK" recorded_value=binds
